So I've got a bunch of sequences here, and I need their apparent KD of MS2 coat protein values.
- System: MS2 coat protein
- assay_info: apparent KD of MS2 coat protein; higher = weaker reporter binding
- test_parameters: Eterna round: R107; input ligand: arginine 13.2 mM
One number for each entry, in nM.

{"sequence_content": "CUUGUUUAUGGAAGGAGCGCGAUUACAUAACAUGAGGAUCACCCAUGUAAGAAAUUAUUCAUGCAGGUAGGUCGCCAUGGGUGGG [Same State Arginine B GF7]", "value_unit": "nM", "apparent KD of MS2 coat protein": 111}
{"sequence_content": "GGGCGACAUGAGGAUCACCCAUGUGUCGAUACCAGUAUGAAUUUCUACCCUUGGCAGCGACGACACGGUUAUUUGUGCACUUCGA [theeternabot_sameState_MS2_Theo_A_5]", "value_unit": "nM", "apparent KD of MS2 coat protein": 77.5}
{"sequence_content": "GCUGUUGCGGUGAGGUAUCCGGCUGUGGAAGGAGCGCGGAAUGCCGCAGGUAGGUCGCCACAUGAGGAUCACCCAUGUCGAUAUA [Atzalama]", "value_unit": "nM", "apparent KD of MS2 coat protein": 25.6}

Count: 5. Required value per item: apparent KD of MS2 coat protein.
1. GCUGCAGCUACGGCCGCCACUGUUACGUGAGACAUGAGGAUCACCCAUGUUGAUGUUUUACGGUAUAGGACCGGGUAGUUGUAGU [E 1.0]
2. AAACUAACGAGAGGAAACCUCGAGGGUGAUACCAGCACAUAAGGGUGCCCUUGGCAGCACCGACGUACAUGAGGAUCACCCAUGU [Gexegees]
3. GCAUCCUAGUCGGCCGCCACUGCAACAUGAGGAUCACCCAUGUCUGCAUCUUCAUGAUGCAGUAGCAGGACCGGGACUAGGAUGC [(T1)-(M1)-(M2)-(T)''-(M)'-(T)'-(T2)_Design1_2/18/17]
4. UGUAACAUGAGGAUCACCCAUGUGAGUGAUACCAGAUUAGUAUUAGUCCCUUGGCAGCACAUUGGGCGAGUGUAUAGUCUAUGCG [Same State - Theophylline A (Freestyle 12)]
5. GUCUCUGAGAGAAGGAGCGUGAAGACAUGAGGAUCACCCAUGUAGAGGCGCCGAAGGCGUUCGCAGGUAGGUCGCUCUCAGAGAC [#1 Same State - Arginine B Attempt #20 (HarryS)]

Key:
9.08
56.6
69.4
106
15.2

Count: 4. Required value per item: apparent KD of MS2 coat protein.
1. AUACAUGAGGAUCACCCAUGUCAUACAGAAGGAGCGUCAUAUUAGACAGGUAGGUCGCUGUAAUUUUUAUUAUUCUUUAUGUAUU [JR_Nu_ExcArginiA_Sub026]
2. ACAUGAGGAUCACCCAUGUUCCUCAUUGAUACCAGUGAAUUUAGACGCCCUUGGCAGCGAGUUUUUUUAUAAGAAGUUUUUUUUU [6.G]
3. AUAACAUGAGGAUCACCCAUGUAUUGGUAACGAGGACCGGUACGGCCGCCACUCGAAUUUUGGUGGUAUAAUAUAUAUAUGAUUA [JR_SSTryptoA_Sub016]
4. GCUAGGUCUACGGCCGCCACUAGACGUGGGUAAGACAUGAGGAUCACCCAUGUACUACGGGCGAUUAGGACCGGGUAGACCUAGC [SSTB NP+V+V2 #16 Same Structure]

Key:
21.9
280
17.4
50.5

Count: 8. Required value per item: apparent KD of MS2 coat protein.
1. GCGCGGCGAGUGCGGCGUGUUCCGCUCCGUCGAGGACCGGUACGGCCGCCACUCGACAUGAGGAUCACCCAUGUCGCCGCGCGUC [Exclusion - Tryptophan A Attempt #1]
2. ACAUGAGGAUCACCCAUGUAUUCAUCAGAAGGAGCGUGGAAUAACACAGGUAGGUCGCUGAUUAUUUGUUAAAUAAAUUCGUGUA [JR_Nu_SSArginiA_Sub023]
3. UGUAUGGACUGAAGGAGCGGGUUGAUAACUUGAGGAUCACCCAGGUAAAAGGCGAAAGCCGCCCAGGUAGGUCGCAGUCCAUACU
4. AACAACAAGGGAAGGAGCGCGAAUAAUAGACAUGAGGAUCACCCAUGUAUCAUGGGAUUAACGCAGGUAGGUCGCCCACAAACAA [#07 Exclusion - Arginine B]
5. GGUCGCCUACAUGGGUAGGCGAUUUUGGAAGGAGCGAGCGAGAGCUCAGGUAGGUCGCCAGCACAUGAGGAUCACCCAUGUUUUU [SSArg-A #25 Weakened 1st state]
6. CCUAUGCAGUCGGCCGCCACUGAAAUAAAUUAUAUUACCUCAGAAACAUGAGGAUCACCCAUGUACAGGACCGGGACUGUAUAGG [Ex Tryptophan B 15]
7. AGUACUCGAACGGAUACCAGCCGGACAUGAGGAUCACCCAUGUCCUACCUCUGUUCGGUUGGCCCUUGGCAGCCGUUCGUGUACA [Omei Theo B SS A v7]
8. UGUAUGGACUGAAGGAGCGCCUCAAAACAUGAGGAUCACCCAUGUGGACAAUAAGUCCUUGGGCAGGUAGGUCGCAGUCCAUACU [ArgBX 6 #StaticStem #MS2Late]

Key:
12.6
19.3
40.2
60.4
20.8
26
41.4
81.4

Count: 3. Required value per item: apparent KD of MS2 coat protein.
1. AGGACCAGGAACAUGGGUGAACUGGUCCAACGAGGACCGGUACGGCCGCCACUCGAAUAAACAUGAGGAUCACCCAUGUAAUAAU [T''-M-T'-T-MS2]
2. AAUACCGGUCCUCGAAGGUGAUCCUCAUAACGAGGACCGGUACGGCCGCCACUCGAUAACAUGAGGAUCACCCAUGUAAUAAUAA [|T'-M'-Trp-Ms2|_Design6]
3. AAACGUUGCUCAGAUACCAGACAUGAGGAUCACCCAUGUACCAAGGUAAAGAAAUAACGUGUCCCUUGGCAGCUGAGCAACGAAA [MAT - Exclusion Theophlline B - Mod of Eli - D11]

Key:
1: 83.3; 2: 56.1; 3: 13.8

* * *

- Test system: K4 kissing-loop RNA reporter;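 also: bound reporter read as fluorescence of individual clusters on recovered sequencing chips by microscopy, with normalized cluster intensities fitted with a binding model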
- assay_info: apparent KD of K4 kissing-loop reporter; higher = weaker reporter binding
- test_parameters: Eterna round: R107; input ligand: arginine 13.2 mM
So I've got a bunch of sequences here, and I need their apparent KD of K4 kissing-loop reporter values.
Give bare numbers, in µM.

{"sequence_content": "AGAGUGAUGUUUUUUUGAAGUGAGUAAAGUCGAGGACCGGUACGGCCGCCACUCGAGUGAUGUUAGUGAUGUUGAUGUAGUGAUG [xxzmullin]", "value_unit": "µM", "apparent KD of K4 kissing-loop reporter": 0.069}
{"sequence_content": "GAAAGGAGUGAUGUUCCUGAUAAUUUUAUGAAGGAUAUUCGAUGUGGAAGAAGGUCAUGCAGGCAGCAAGGUUGCGAUCAUAUCA [theeternabot_exclusion_KL_FMN_A_40]", "value_unit": "µM", "apparent KD of K4 kissing-loop reporter": 0.158}
{"sequence_content": "AGAGUACGAAAGUACUCCUCUACACACUGACGAGGACCGGUACGGCCGCCACUCGAGUUGAGUGAUGUUCGACAGUGUGUAGAGA [Omei KL Tryp A SS C v1]", "value_unit": "µM", "apparent KD of K4 kissing-loop reporter": 0.0223}
{"sequence_content": "UUUUAUUAAUACUUCUAGUGAUGUUAGAUACGAGGACCGGUACGGCCGCCACUCGCUUAUUGGUUUAUAUAUUUUAUAUUCUUUA [JR_SSTryptoA_Sub014]", "value_unit": "µM", "apparent KD of K4 kissing-loop reporter": 0.362}
{"sequence_content": "AAUGUAUGGCACAUGAGUGAUGUUCAUGUCCGAGGACCGGUACGGCCGCCACUCGGUCCUGGGUUCUUAUUACUAUACAUUAAUG [KL-XTryp-A2 #analogue]", "value_unit": "µM", "apparent KD of K4 kissing-loop reporter": 0.133}

Exercise: Request the reported apparent KD of K4 kissing-loop reporter associated with UAUAUAGUGACGGCCGCCACUAUAUUAAUGUUUUUGUUAGAGUGAUGUUUUGAUUAAUAUUUUUAUAGGACCGGGUUAUAUGUUA [xzzxmullin]
Key: 0.403

* * *

- System: MS2 coat protein
- assay_info: apparent KD of MS2 coat protein; designed switch direction (-1 OFF switch, 1 ON switch): 1; higher = weaker reporter binding
- test_parameters: Eterna round: R95; input ligand: microRNA oligo, concentration not stated
So I've got a bunch of sequences here, and I need their apparent KD of MS2 coat protein values.
One number for each entry, in nM.

As a guide, the following entries are already answered.
{"sequence_content": "GACAAUCUAUCUGAGGAUAUCAUGAGAAGAACAUGAGGAUCACCCAUGUGCAGGAAAACUGCAUAUGAGAAGGCAGAUAGAUUGG [Mat - Same State 2 - Mod - D17] (puzzle: Same State 2)", "apparent KD of MS2 coat protein / nM": 607}
{"sequence_content": "AACAAUCUAUCUGAGGAUAUCAUGAAAUAUACAUGAGGAUCACCCAUGUGCAGGAAAACUGCAUAUGAGAAGGCAGAUAGAUUGA [salish99_ss2_r3_034] (puzzle: Same State 2)", "apparent KD of MS2 coat protein / nM": 612}

Count: 8. Required value per item: apparent KD of MS2 coat protein.
1. CGUCCGGCCUGUGCUGGCCGGUAGCUUGUACAUGAGGAUCACCCAUGUUCAUGUGCUGGCUUUUUGCUCGUCUUGUG [salish99_mir208a_017] (puzzle: Sensor for hsa-mir-208a)
2. UAAACUUCUUUUAGUGUAAUGCAAGUGAAACAUGAGGAUCACCCAUGUAAAGGAUCGUGAUAUUUUGUUCGUCUUAA [JR_SHM208A_Sub076] (puzzle: Sensor for hsa-mir-208a)
3. UGGCCAGCCUGUGCUGGGCUUUUGCAUGUACAUGAGGAUCACCCAUGUCGUGUUCAUGCUUUUUGCUCGUCUUUAAA [Photon Torp-03] (puzzle: Sensor for hsa-mir-208a)
4. UGCAUACAUGAGGAUCACCCAUGUCAACGUAGUCGAGGAUAUGGGCAGCCGUGAGGCGUACCAGAAGGCGAAGAGG [JL-ss1-3.04 ViennaUCT mod] (puzzle: Same State 1)
5. AGCUAUCGAAAACGAUAGCAAGAGCAUGUACAUGAGGAUCACCCAUGUCAUGUACAAGCUUUUUGCUCGUCUUAAAA [Zipper 23 - 2] (puzzle: Sensor for hsa-mir-208a)
6. UGUUAACAUGAGGAUCACCCAUGUCAAAUGAAUGAAGGAUAUGGAAAGUAAUAAGAUGAACUAGAAGGUCAAGAUG [Altered State 1-22 - Jieux - Same State 1] (puzzle: Same State 1)
7. CGUUCUUACUCAGGACGGAGAGUAGAGGAACAUGAGGAUCACCCAUGUAUGAGCUUUUUGCUCGUGAUUAACAGUAG [JR_SHM208a_Sub013] (puzzle: Sensor for hsa-mir-208a)
8. AACAAUCUAUCUGAGGAUAUCAUGAAAUAAACAUGAGGAUCACCCAUGUGCAGGAAAACUGCAUAUGAGAAGGCAGAUAGAUUGA [salish99_ss2_r3_x] (puzzle: Same State 2)

Key:
1. 27.2
2. 32.5
3. 16.3
4. 62.2
5. 17
6. 51.9
7. 95.4
8. 605
